# test-description: Induction of fetal hemoglobin in human bone marrow derived CD34+ cells incubated for 5 days by FITC staining based flow cytometry analysis
# Assay type: functional, tissue-based
# test-context: cd34-positive (myeloid/lymphoid) cell
value-type: EC50

Answered cases to consult:
-- ask Give EC50 for `CN(C)C(=O)CCN1CCn2cc(-c3ccc(F)cc3)cc2C1=O`
-- reply > 5 µM

-- ask Give EC50 for CN(C)C(=O)CCNC(=O)C1CSC(c2ccc(F)cc2)N1 (mixture of isomers)
-- reply > 5 µM

-- ask Give EC50 for `CN(C)C(=O)CCNC(=O)c1cc(-c2ccccc2)no1`
-- reply 1.7 µM

-- ask Give EC50 for `CN(C)C(=O)CCNC(=O)c1csc(-c2ccc(F)cc2)n1`
-- reply > 5 µM

-- ask Give EC50 for CC(CC(=O)N(C)C)NC(=O)c1cc(-c2ccc(F)cc2)no1 (racemic)
-- reply > 5 µM

-- ask Give EC50 for `CCN1CC2(CC(NC(=O)c3cc(-c4ccccc4)no3)C2)C1`
-- reply 5 µM

-- ask Give EC50 for `CCC(=O)N1CC2(CC(NC(=O)c3cc(-c4ccccc4)no3)C2)C1`
-- reply > 5 µM

-- ask Give EC50 for `CC(C)C(=O)N1CC2(CC(NC(=O)c3cc(-c4ccccc4)no3)C2)C1`
-- reply > 5 µM

-- ask Give EC50 for `CN(C)C(=O)CCNC(=O)c1cc(-c2ccc(F)cc2)no1`
-- reply 2.8 µM

-- ask Give EC50 for `CN(C)C(=O)CCCNC(=O)c1cc(-c2ccc(F)cc2)no1`
-- reply 4.1 µM

***
-- ask Give EC50 for `CN(C)C(=O)CCN1CCc2[nH]c(-c3ccc(F)cc3)cc2C1=O`
-- reply > 5 µM

----------
# test-description: Cmax in monkey at 1 mg/kg, po
# Assay type: ADME, organism-based, Macaca mulatta
# Design: route oral, dose 1 mg/kg
# test-context: rhesus monkey, in vivo
value-type: Cmax (ng/mL)

-- ask Give Cmax for `CC(=O)N1CC2(CC(NC(=O)c3cc(-c4ccc(F)cc4)no3)C2)C1`
-- reply 460

-- ask Give Cmax for `CC(=O)N1CC2(CC(NC(=O)c3cc(-c4ccccc4)no3)C2)C1`
-- reply 545

----------
# test-description: AUClast in monkey at 10 mg/kg, po
# Assay type: ADME, organism-based, Macaca mulatta
# Design: route oral, time 0 - last, dose 10 mg/kg
# test-context: rhesus monkey, in vivo
value-type: AUC(0-t) (ng·h/mL)
Return type: number; implicit unit ng·h/mL.

-- ask Give AUC(0-t) for `CN(C)C(=O)CCNC(=O)c1cc(-c2ccc(F)cc2)no1`
-- reply 4360

----------
# test-description: Induction of fetal hemoglobin in human bone marrow derived CD34+ cells incubated for 5 days by FITC staining based flow cytometry analysis
# Format: functional, tissue-based
# test-context: cd34-positive (myeloid/lymphoid) cell
# EC50 values compiled below

Answered cases to consult:
-- ask Give EC50 for `CS(=O)(=O)N1CC2(CC(NC(=O)c3cc(-c4ccccc4)no3)C2)C1`
-- reply 3.9 µM

-- ask Give EC50 for `CN(C)C(=O)CNC(=O)c1cc(-c2ccc(F)cc2)no1`
-- reply 6.1 µM

-- ask Give EC50 for `CC(=O)N1CC2(CC(NC(=O)c3cc(-c4ccc(F)cc4)no3)C2)C1`
-- reply 2.9 µM

-- ask Give EC50 for `CN(C)C(=O)CCNC(=O)c1cc(-c2cccc(F)c2)no1`
-- reply > 5 µM

***
-- ask Give EC50 for `CN(C)CCCNC(=O)c1cc(-c2ccc(F)cc2)no1`
-- reply > 5 µM

-- ask Give EC50 for `CN(C)C(=O)CCN(C)C(=O)c1cc(-c2ccc(F)cc2)no1`
-- reply > 5 µM

-- ask Give EC50 for `CN(C)C(=O)CCN1CCc2c(cc(-c3ccc(F)cc3)n2C)C1=O`
-- reply > 5 µM

-- ask Give EC50 for `CC(=O)N1CC(CNC(=O)c2cc(-c3ccccc3)no2)C1`
-- reply > 5 µM

-- ask Give EC50 for `CN(C)C(=O)CCNC(=O)c1cc(-c2ccccc2F)no1`
-- reply > 5 µM

----------
# test-description: Solubility of the compound in pH 1.2 JP1 fluid
# Assay type: physicochemical
value-type: solubility

Answered cases to consult:
-- ask Give solubility for `CN(C)C(=O)CCNC(=O)c1cc(-c2ccc(F)cc2)no1`
-- reply > 100 µg/mL

-- ask Give solubility for `CC(=O)N1CC2(CC(NC(=O)c3cc(-c4ccc(F)cc4)no3)C2)C1`
-- reply > 100 µg/mL

Here is another compound to look at.
-- ask Give solubility for `CC(=O)N1CC2(CC(NC(=O)c3cc(-c4ccccc4)no3)C2)C1`
-- reply > 100 µg/mL

----------
# test-description: Protein binding in monkey plasma
# Format: ADME, cell-free, Macaca mulatta
# test-context: rhesus monkey, read-out: PPB (converted)
value-type: fraction unbound

(I) CC(=O)N1CC2(CC(NC(=O)c3cc(-c4ccc(F)cc4)no3)C2)C1
(II) CN(C)C(=O)CCNC(=O)c1cc(-c2ccc(F)cc2)no1
-- ask Please indicate which item has the smaller measured fraction unbound: I versus II # answer = label of selected item
-- reply I
(I: 0.28, II: 0.42)

----------
# target-under-test: CYP2C9 (Homo sapiens, UniProt P11712)
# Sequence (P11712 whole entry): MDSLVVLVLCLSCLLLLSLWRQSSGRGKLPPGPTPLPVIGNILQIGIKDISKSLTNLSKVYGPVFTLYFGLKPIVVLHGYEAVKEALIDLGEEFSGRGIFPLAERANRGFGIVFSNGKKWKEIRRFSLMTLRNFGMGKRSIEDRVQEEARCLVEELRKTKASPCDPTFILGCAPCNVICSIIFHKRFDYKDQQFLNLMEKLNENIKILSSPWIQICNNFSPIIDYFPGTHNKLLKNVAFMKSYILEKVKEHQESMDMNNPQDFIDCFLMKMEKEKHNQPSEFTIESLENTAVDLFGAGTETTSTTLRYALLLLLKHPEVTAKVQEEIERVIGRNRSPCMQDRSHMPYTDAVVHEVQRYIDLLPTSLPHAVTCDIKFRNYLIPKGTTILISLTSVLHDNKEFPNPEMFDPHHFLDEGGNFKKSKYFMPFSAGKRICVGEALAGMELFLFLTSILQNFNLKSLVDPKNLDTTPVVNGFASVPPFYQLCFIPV
# test-description: Inhibition of CYP2C9 (unknown origin) at 10 uM relative to control
# Format: ADME
# inhibition at 10 µM values compiled below

Answered cases to consult:
-- ask Give inhibition at 10 µM for `CN(C)C(=O)CCNC(=O)c1cc(-c2ccc(F)cc2)no1`
-- reply 6%

-- ask Give inhibition at 10 µM for `CC(=O)N1CC2(CC(NC(=O)c3cc(-c4ccccc4)no3)C2)C1`
-- reply < 0%

***
-- ask Give inhibition at 10 µM for `CC(=O)N1CC2(CC(NC(=O)c3cc(-c4ccc(F)cc4)no3)C2)C1`
-- reply < 0%

----------
# test-description: Metabolic stability in human liver microsomes assessed as parent compound remaining at 0.5 mg/mL incubated for 0.5 hrs
# Format: ADME, Microsome
# test-context: read-out: Stabilty
value-type: remaining at 0.5 h (%)

-- ask Give remaining at 0.5 h for `CCN1CC2(CC(NC(=O)c3cc(-c4ccccc4)no3)C2)C1`
-- reply 100

-- ask Give remaining at 0.5 h for `CN(C)C(=O)CCNC(=O)c1cc(-c2ccc(F)cc2)no1`
-- reply 87

-- ask Give remaining at 0.5 h for `CN(C)C(=O)CNC(=O)c1cc(-c2ccc(F)cc2)no1`
-- reply 84

-- ask Give remaining at 0.5 h for `CS(=O)(=O)N1CC2(CC(NC(=O)c3cc(-c4ccccc4)no3)C2)C1`
-- reply 76

-- ask Give remaining at 0.5 h for `CCC(=O)N1CC2(CC(NC(=O)c3cc(-c4ccccc4)no3)C2)C1`
-- reply 68

-- ask Give remaining at 0.5 h for `CN(C)C(=O)CCN(C)C(=O)c1cc(-c2ccc(F)cc2)no1`
-- reply 98

-- ask Give remaining at 0.5 h for CN(C)C(=O)CCNC(=O)C1CSC(c2ccc(F)cc2)N1 (mixture of isomers)
-- reply 90

-- ask Give remaining at 0.5 h for `CC(C)C(=O)N1CC2(CC(NC(=O)c3cc(-c4ccccc4)no3)C2)C1`
-- reply 79

-- ask Give remaining at 0.5 h for `CN(C)C(=O)CCN1CCn2cc(-c3ccc(F)cc3)cc2C1=O`
-- reply 94

----------
# test-description: Metabolic stability in monkey liver microsomes assessed as parent compound remaining at 0.5 mg/mL incubated for 0.5 hrs
# Type: ADME, Macaca mulatta, Microsome
# test-context: rhesus monkey, read-out: Stabilty
value-type: remaining at 0.5 h (%)

Answered cases to consult:
-- ask Give remaining at 0.5 h for CC(CC(=O)N(C)C)NC(=O)c1cc(-c2ccc(F)cc2)no1 (racemic)
-- reply 35

-- ask Give remaining at 0.5 h for `CC(C)C(=O)N1CC2(CC(NC(=O)c3cc(-c4ccccc4)no3)C2)C1`
-- reply 55

-- ask Give remaining at 0.5 h for `CN(C)C(=O)CCNC(=O)c1cc(C2CCCCC2)no1`
-- reply 34

(1) CN(C)C(=O)CCNC(=O)c1cc(-c2cccc(F)c2)no1
(2) CN(C)C(=O)CCNC(=O)c1cc(-c2ccc(F)cc2)no1
(3) CN(C)C(=O)CCN(C)C(=O)c1cc(-c2ccc(F)cc2)no1
(4) CN(C)C(=O)CCNC(=O)c1csc(-c2ccc(F)cc2)n1
-- ask Sort the molecules on remaining at 0.5 h; start with the lowest figure. Please reply with the labels ordered as requested. Many thanks.
-- reply 4, 2, 3, 1
(4: 0.1%, 2: 10%, 3: 36%, 1: 55%)

----------
# test-description: Metabolic stability in human liver microsomes assessed as parent compound remaining at 0.5 mg/mL incubated for 0.5 hrs
# Type: ADME, Microsome
# test-context: read-out: Stabilty
value-type: remaining at 0.5 h (%)

-- ask Give remaining at 0.5 h for `CN(C)C(=O)CCN1CCc2[nH]c(-c3ccc(F)cc3)cc2C1=O`
-- reply 99

(1) CN(C)C(=O)CCNC(=O)c1csc(-c2ccc(F)cc2)n1
(2) CN(C)C(=O)CCNC(=O)c1cc(-c2ccccc2)no1
-- ask Please indicate which item has the smaller measured remaining at 0.5 h: 1 versus 2 # answer = label of selected item
-- reply 1
(1: 53%, 2: 81%)

(P) CC(CNC(=O)c1cc(-c2ccc(F)cc2)no1)C(=O)N(C)C (racemic)
(Q) CC(CC(=O)N(C)C)NC(=O)c1cc(-c2ccc(F)cc2)no1 (racemic)
-- ask Select the item with the higher value of remaining at 0.5 h from the options P and Q listed. # answer = label of selected item
-- reply Q
(Q: 91%, P: 61%)

(A) CC(=O)N1CC(CNC(=O)c2cc(-c3ccccc3)no2)C1
(B) CC(=O)N1CC2(CC(NC(=O)c3cc(-c4ccc(F)cc4)no3)C2)C1
-- ask Select the item with the higher value of remaining at 0.5 h from the options A and B listed. # answer = label of selected item
-- reply B
(B: 84%, A: 50%)

Values from ChEMBL document CHEMBL4699452
